These entries and their values trace back to PubChem BioAssay (NCI).

Test system: SF-295 CNS
Assay Overview: NCI-60 one-dose screen, 48 h (100 = growth as untreated, 0 = no growth, -100 = all killed)
Cond: 10 µM
Compounds without any hit were thinned out: in the full panel of roughly 83,000, 20% have a hit.
Classify by measured growth: y if it is equal to or exceeds 80%, n if it is smaller.

Molecule	Assigned Label
CCN(CC)c1ccc(/C=C2\SC(=O)C(Nc3nnc(-c4cccnc4SCc4ccccc4)o3)C2=O)cc1 (stereo not given)	n
CCn1c(SC/C(=N/O)c2ccccc2)nnc1-c1ccccc1	y
CS(=O)(=O)c1nccc(-c2c(-c3cccc(O)c3)nc3sccn23)n1	y
COc1ccc(/C=C2/SC(=S)NC2=O)c(OC)c1OC	n
CCC(=O)OC1CCC2C3CCC(=O)OC3C(C)(CCC(=O)O)CC12C (stereo not given)	n

---

System: UACC-62 melanoma
Assay Overview: NCI-60 one-dose screen, 48 h (100 = growth as untreated, 0 = no growth, -100 = all killed)
Cond: 10 µM
Compounds without any hit were thinned out: in the full panel of roughly 83,000, 20% have a hit.
Test Readout: growth (%)

Compound	Experimental Target	Test Readout	Obs Value
O=C1C=C(Nc2cccc(Br)c2)c2ccccc2C1=O	UACC-62 melanoma	growth	46.8
C=C(NC(=O)C(=C)NC(=O)c1csc(C2=NC3c4csc(n4)C4NC(=O)c5csc(n5)C(C(C)(O)C(C)O)NC(=O)C5CSC(=N5)C(=CC)NC(=O)C(C(C)O)NC(=O)c5csc(n5)C3(CC2)NC(=O)C(C)NC(=O)C(=C)NC(=O)C(C)NC(=O)C(C(C)CC)NC2C=Cc3c(C(C)O)cc(nc3C2O)C(=O)OC4C)n1)C(N)=O (configuration not stated)	UACC-62 melanoma	growth	-17
COc1cc(-c2csc(NC(=O)Nc3cc(C(F)(F)F)cc(C(F)(F)F)c3)n2)cc(OC)c1OC	UACC-62 melanoma	growth	18.7
CCOC(=O)c1cc(C(=O)c2cc(OC)cc(OC)c2)n2nc(C)ccc12	UACC-62 melanoma	growth	46.7
O=C(CI)OCC(COC(=O)CI)OC(=O)CI	UACC-62 melanoma	growth	80.9
OC[C@H]1OC([S-])[C@H](O)[C@@H](O)[C@@H]1O.[Au+] (some centres not stated)	UACC-62 melanoma	growth	63.3
CCN(CC)CC(=O)N(CC)c1ccc(C)c(Cl)c1	UACC-62 melanoma	growth	97.7
CCC(=O)OC1CCC2C3CCC(=O)OC3C(C)(CCC(=O)O)CC12C (configuration not stated)	UACC-62 melanoma	growth	45.9
COc1cccc(C2C(C#N)=C(N)Oc3cc(N)ccc32)c1 (configuration not stated)	UACC-62 melanoma	growth	41.7
Cc1c2cnccc2c(C)c2c1c1cc(O)ccc1n2C(C)C	UACC-62 melanoma	growth	-15.7
CN(C)CCOc1cccc(NC2=C(Cl)C(=O)C(Nc3cccc(OCCN(C)C)c3)=C(Cl)C2=O)c1	UACC-62 melanoma	growth	-82.2
COc1cc(OC)c2c(=O)c(O)c(-c3ccccc3)oc2c1	UACC-62 melanoma	growth	72.1

---

The following molecules are shown together with reported growth values.
Tested on: U251 CNS
Assay Overview: NCI-60 one-dose screen, 48 h (100 = growth as untreated, 0 = no growth, -100 = all killed)
Cond: 10 µM
Experimental: Growth inhibition of the U251 human tumor cell line is measured as a screen for anti-cancer activity. Cells are grown in 96 well plates and exposed to the test compound for 48 hours. Compounds are tested at a single concentration, which is 10^-5 M for most compounds. The reported endpoint is percent growth (GI% or GIPRCNT), where numbers from 0 - 100% represent growth inhibition, and numbers from -100% - 0 represent cell death. For example, a value of 40 represents 60% growth inhibition. […]
Compounds without any hit were thinned out: in the full panel of roughly 83,000, 20% have a hit.

Molecule	Unit	growth
Cc1[nH]c2ccccc2c1/C=N/Nc1ncnc2sc3c(c12)CCN(CC(=O)OC(C)(C)C)C3	%	78.2
COc1cc2cc(Oc3ccc(NC(=O)c4cccc(C(F)(F)F)c4)cc3)c(C)nc2cc1OC	%	19.5
COC1OC(COS(=O)OC)C(O)C(O)C1OS(=O)OC (configuration not stated)	%	99.3
Cc1ccc(S(=O)(=O)N(C)CCCCCC(=O)O)cc1	%	104
CC[C@@H]1NC(=O)[C@H]([C@H](O)[C@H](C)C/C=C/c2ccc(CN3C(=O)CCCC3=O)cc2)N(C)C(=O)[C@H](C(C)C)N(C)C(=O)[C@H](CC(C)C)N(C)C(=O)[C@H](CC(C)C)N(C)C(=O)[C@@H](C)NC(=O)[C@H](C)NC(=O)[C@H](CC(C)C)N(C)C(=O)[C@H](C(C)C)NC(=O)[C@H](CC(C)C)N(C)C(=O)CN(C)C1=O	%	60.2
COc1ccc(/C=C/c2nnc(/C=C/c3ccc(OC)c(OC)c3)o2)cc1OC	%	16.2
CO[C@H]1CC(O[C@@H]2/C(C)=C/C[C@@H]3C[C@@H](C[C@]4(C=C[C@H](C)[C@@H](C5CCCCC5)O4)O3)OC(=O)[C@@H]3C=C(C)[C@@H](O)[C@H]4OC/C(=C\C=C\[C@@H]2C)[C@]43O)O[C@@H](C)C1O[C@H]1C[C@H](OC)[C@@H](O)[C@H](C)O1 (some centres not stated)	%	-91.2
O=C(CCCSc1nc(-c2ccc(Cl)cc2)cc(-c2ccc(Cl)cc2)n1)NO	%	17.2
c1ccc(CCCCc2ccc3ccccc3n2)cc1	%	90.6
O=[N+]([O-])c1cc(Cl)cc(Cl)c1O	%	104
Cc1cc(=O)n2nnc3cc(Cl)c(Cl)cc3n12	%	94.8
CC(C)Cc1ccc([C@H](C)C(=O)O)cc1	%	101
COc1cc(C2C(C#N)=C(N)Oc3cc(O)ccc32)cc(OC)c1OC (configuration not stated)	%	11.1
O=[N+]([O-])c1ccc(NCSc2ccc(Cl)cc2)cc1	%	82
CN(C)c1ccc(/C=N/NC(=O)c2ccccc2Nc2cccc(C(F)(F)F)c2)cc1	%	81.1
CCn1cc(CNc2ccc(C(=O)Nc3ccc4ccccc4c3)cc2)c(C)n1	%	84.5
CC(=O)OC1C=CC(OC(C)=O)O1 (configuration not stated)	%	88.6
O=C(CN(C1CCCCC1)C1CCCCC1)Nc1ccc(S(=O)(=O)c2ccc(NC(=O)CN(C3CCCCC3)C3CCCCC3)cc2)cc1	%	-75.9
COc1ccc(-c2n[nH]nc2-c2cc(OC)c(OC)c(OC)c2)cc1	%	1.61
O=C(CSc1nccc(Nc2cccc3ccccc23)n1)c1ccc(Cl)cc1	%	96.1
CN(C)CCCOc1ccccc1NC1=C(Cl)C(=O)C(Nc2ccccc2OCCCN(C)C)=C(Cl)C1=O	%	-86.1
COc1cc(-c2nn(-c3cccc(NC(=O)CCN4CCN(Cc5ccccc5)CC4)c3)cc2-c2ccncc2)ccc1Cl	%	6.53

---

The following compounds are shown together with reported growth values.
System: HCT-15 colon
Assay Overview: NCI-60 one-dose screen, 48 h (100 = growth as untreated, 0 = no growth, -100 = all killed)
Cond: 10 µM
Compounds without any hit were thinned out: in the full panel of roughly 83,000, 20% have a hit. Active and inactive are the calls of the source. The calls were made as follows: active = growth percent below 10; inactive = the rest.

Compound	Experimental Target	growth
NC1=CC(=O)C(=O)c2cccnc21	HCT-15 colon	66.7% (inactive)
OC(CCN1CCCC1)(c1ccccc1)C1CCCCC1 (centres undefined)	HCT-15 colon	92.4% (inactive)
CCn1cc(C(=O)O)c(=O)c2cc(F)c(N3CCNCC3)cc21	HCT-15 colon	102% (inactive)
c1ccc2c(c1)Cc1ccccc1N2CCN1CCCCC1	HCT-15 colon	94.2% (inactive)
Cc1ccc(S(=O)(=O)N(C)CCCCCC(=O)O)cc1	HCT-15 colon	97.8% (inactive)
O=C(/C=C/C=C/c1c(C2CC2)nc2ccccc2c1-c1ccc(F)cc1)c1cccs1	HCT-15 colon	18.6% (inactive)
COc1ccc(/C=C2\CCCC3=C2NC(N)=NC3c2ccc(OC)c(OC)c2)cc1OC (centres undefined)	HCT-15 colon	35.9% (inactive)
Oc1ccc(/C=N/N=C2c3ccccc3-c3ccccc32)c(O)c1	HCT-15 colon	46.4% (inactive)
Cc1ccc(N=Nc2ccccc2)cc1	HCT-15 colon	99.5% (inactive)
CN(C)CCCSc1ccccc1NC1=C(Cl)C(=O)C(Nc2ccccc2SCCCN(C)C)=C(Cl)C1=O	HCT-15 colon	72.1% (inactive)
O=S(=O)(O)c1cccc(Nc2ccc3ccccc3c2)c1	HCT-15 colon	110% (inactive)
CCC1NC(=O)c2cc(S(N)(=O)=O)c(Cl)cc2N1 (centres undefined)	HCT-15 colon	109% (inactive)
CC(=O)N[C@H](C(=O)N[C@@H](CCCNC(=N)N)C(=O)N[C@@H](CCCCN)C(=O)N[C@@H](CCCNC(=N)N)C(=O)N[C@]1(C)CCC/C=C\CCC[C@@](C)(C(=O)N[C@@H](CC(C)C)C(=O)N[C@@H](CC(C)C)C(=O)N[C@@H](CCC(N)=O)C(=O)N[C@@H](CCC(=O)O)C(=O)N[C@@H](CCCNC(=N)N)C(=O)N[C@@H](CCC(=O)O)C(=O)N[C@@H](CC(C)C)C(=O)N[C@H](C(=O)N[C@@H](CCC(=O)O)C(N)=O)C(C)C)NC(=O)[C@H](CCCNC(=N)N)NC(=O)[C@H](CC(C)C)NC1=O)C(C)C	HCT-15 colon	109% (inactive)
COc1cccc(N=Nc2cccc(OC)c2)c1	HCT-15 colon	91.1% (inactive)
